Hello, the source for this data is PubChem BioAssay AID492949, in case you need it.

- target_or_system: Relaxin receptor 1 (Homo sapiens)
- test_name: qHTS Assay for Agonists of the Relaxin Receptor RXFP1: THP1 Hit Validation; also: nearly all actives have a fitted effect of over 60% in size; also: potency is read from the fitted curve at half-maximal effect
- measurement_setup: THP1-RXFP1 cells, cAMP TR-FRET, 30 min; series mostly up to 115 µM
- Method: The relaxin hormone is involved in the variety of biological functions in normal tissues and diseases. […] Upon relaxin binding RXFP1 activation leads to the activation of adenylate cyclase (AC) via Gs. cAMP will activate PKA, which phosphorylates many signaling proteins. […] RXFP1 activation was assayed by changes in cAMP levels as detected with a time-resolved fluorescence energy transfer (TR-FRET) cAMP detection kit. […]
Results filed as inconclusive are left out. Calls of active or inactive are those of the source. Calls follow the shape of the dose curve; as a rule, active = well fitted activation curve with a large enough effect; inconclusive = small, poorly fitted or top-dose-only effect; inactive = no such curve, though single readings can be large or run the other way.
value_type: Potency

Below: 4 compounds and their reported Potency.
Brc1ccc2ncnc(NCc3cccnc3)c2c1; 48.9 µM (active)
O=C(Nc1ccccc1C(=O)N1CCOCC1)c1ccco1; inactive
CC(=O)C1C(c2ccccc2)c2c(noc2C)CC1(C)O (centres undefined); inactive
O=C(Nc1ccccc1C(=O)NCCc1ccc(O)cc1)c1ccco1; inactive

Problem: Recorded Potency of C=C(C)C(=O)Nc1cccc(C2=NOC3(C2)C[C@@H](C(N)=O)N(C(=O)c2ccc(Cl)cc2)C3)c1 (some centres undefined) , please.
Result: inactive

Problem: Name the recorded Potency for Cc1cccn2c(=O)c(/C=C3\SC(=S)NC3=O)c(NCCCN3CCOCC3)nc12 .
Result: 4.88 µM (active)

Problem: Value lookup for Potency; key = COc1ccccc1NC(=O)CCCc1nnc2n(C)c(=O)c3sccc3n12
Result: 15.4 µM (active)

Problem: // Potency lookup, key: Cc1cc(NC(=O)c2ccccc2F)nc2c1c(=O)oc1ccccc12
Result: 19.4 µM (active)

Problem: Any idea what Potency was measured for CCc1nnc(NC(=O)CSc2nc(C)nc3c2c(=O)n(C)c(=O)n3C)s1 ?
Result: 10.9 µM (active)

Problem: Fill in: Potency of COc1ccccc1CNS(=O)(=O)c1cc(CN2C(=O)c3cccnc3C2=O)ccc1OC is ___
Result: 17.4 µM (active)
